What follows is a collection of pIC50 values obtained with UniProt:O42275.
Conceptually, pIC50 converts a concentration in mol/L into minus its log10.

sample_smiles=Cc1ccc(Nc2nc(Nc3cccc(C(F)(F)F)c3)nc(N3CCN(c4ncccc4C#N)CC3)n2)cc1 test_target=UniProt:O42275 result=6.82
sample_smiles=N#Cc1cccnc1N1CCN(c2nc(Nc3cccc(C(F)(F)F)c3)nc(Nc3ccc(F)cc3F)n2)CC1 test_target=UniProt:O42275 result=7.14

Next item in the queue.
What does the record list as pIC50 for "COc1ccc(Nc2nc(Nc3cccc(C(F)(F)F)c3)nc(N3CCN(c4ncccc4C#N)CC3)n2)cc1" ?
7.10

###

- Species: Homo sapiens
- protocol-description: Inhibition of amyloid beta (1 to 42 ) (unknown origin) self aggregation at 25 uM after 48 hrs by thioflavin-T fluorescence method relative to control
Output true for inhibition not less than 80%; output false otherwise.

sample_smiles=COc1ccc(Nc2nc(Nc3cccc(C(F)(F)F)c3)nc(N3CCN(c4ncccc4C#N)CC3)n2)cc1 class_name=true
sample_smiles=COc1cc(/C=C/C(=O)CC(=O)/C=C/c2ccc(O)c(OC)c2)ccc1O class_name=false
sample_smiles=Cc1ccc(Nc2nc(Nc3ccc(F)c(Cl)c3)nc(N3CCN(c4ncccc4C#N)CC3)n2)cc1 class_name=false
sample_smiles=Cc1ccc(Nc2nc(Nc3cccc(C(F)(F)F)c3)nc(N3CCN(c4ncccc4C#N)CC3)n2)cc1 class_name=false

Does inhibition meet or surpass 80% for "COc1ccc(Nc2nc(Nc3ccccc3F)nc(N3CCN(c4ncccc4C#N)CC3)n2)cc1" ?
false

Also "N#Cc1cccnc1N1CCN(c2nc(Nc3cccc(C(F)(F)F)c3)nc(NC3CC3)n2)CC1" , if possible.
false

Also "N#Cc1cccnc1N1CCN(c2nc(Nc3cccc(C(F)(F)F)c3)nc(Nc3ccc(F)c(Cl)c3)n2)CC1" , if possible.
true

###

Reported pIC50 for target or system Acetylcholinesterase (Electrophorus electricus, UniProt O42275), by entry.
Formally, pIC50 is defined as -log10 of the concentration c, with c in mol/L.

Below: 4 molecules and their reported pIC50.
sample_smiles=COc1ccc(Nc2nc(Nc3ccccc3F)nc(N3CCN(c4ncccc4C#N)CC3)n2)cc1 result=5.85
sample_smiles=Cc1ccc(Nc2nc(Nc3ccc(F)c(Cl)c3)nc(N3CCN(c4ncccc4C#N)CC3)n2)cc1 result=5.77
sample_smiles=N#Cc1cccnc1N1CCN(c2nc(Nc3cccc(C(F)(F)F)c3)nc(Nc3ccc(F)c(Cl)c3)n2)CC1 result=7.23
sample_smiles=N#Cc1cccnc1N1CCN(c2nc(Nc3ccc(F)cc3)nc(Nc3cccc(C(F)(F)F)c3)n2)CC1 result=7.08

# ---- query molecule ----
Given the molecule "N#Cc1cccnc1N1CCN(c2nc(Nc3cccc(C(F)(F)F)c3)nc(NC3CC3)n2)CC1" , what is its reported pIC50?
6.28
